protocol.summary: MRT (0 to t) in ICR mouse at 50 mg/kg, po
Format: ADME, organism-based
Design: dose 50 mg/kg, route oral
protocol.conditions: in vivo
measure.name: MRT last (h)
Numbers only, in h.

Challenge: Value lookup for MRT last; key = CCCCCN(C(=O)Nc1nccs1)c1ccc(OC(C)(C)C(=O)O)cc1
Response given: 1.13

* * *

protocol.summary: AUC (0 to t) in ICR mouse at 50 mg/kg, po
Type: ADME, organism-based
Design: dose 50 mg/kg, route oral
protocol.conditions: plasma
measure.name: AUC(0-t) (ng·h/mL)
Answers are plain numbers, in ng·h/mL.

Challenge: Value lookup for AUC(0-t); key = CCCCCN(C(=O)Nc1nccs1)c1ccc(OC(C)(C)C(=O)O)cc1
Response given: 98000

* * *

protocol.summary: Cmax in ICR mouse at 50 mg/kg, po
Type: ADME, organism-based
Design: dose 50 mg/kg, route oral
protocol.conditions: in vivo
measure.name: Cmax (µg/mL)
Answers are plain numbers, in µg/mL.

Challenge: Value lookup for Cmax; key = CCCCCN(C(=O)Nc1nccs1)c1ccc(OC(C)(C)C(=O)O)cc1
Response given: 77.8

* * *

protocol.summary: Tmax in ICR mouse at 50 mg/kg, po
Format: ADME, organism-based
Set-up: dose 50 mg/kg, route oral
protocol.conditions: in vivo
measure.name: Tmax (min)
One number for each entry, in min.

Challenge: Value lookup for Tmax; key = CCCCCN(C(=O)Nc1nccs1)c1ccc(OC(C)(C)C(=O)O)cc1
Response given: 30

All figures here come from ChEMBL document CHEMBL3124776.
